- System: glucose-6-phosphate dehydrogenase-6-phosphogluconolactonase (PfGluPho), Plasmodium falciparum 3D7
- Protocol Details: malaria parasite PfGluPho enzyme inhibition – biochemical, fluorescence intensity, single concentration, confirmation (AID 504753);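 further: 0% = DMSO with substrate and 100% = DMSO lacking glucose-6-phosphate substrate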
- Experimental Setup: recombinant PfGluPho, NADPH-diaphorase-resazurin fluorescence; at 20 µM; active compounds read high
The campaign covered roughly 2,400 compounds. About 820 (34%) were called active. Only a sample is shown.
Measured Property: inhibition (%)

> print(dat)
                                    compound  value.reported
 1          O=C(Nc1ccc(F)cc1)c1cc2c(s1)CCCC2            15.8
 2  COc1ccc2c(c1)c(=Cc1ccc(N(C)C)cc1)c1cc(-c3ccccc3)[n+](C)n12              74
 3      COc1ccc(Nc2cc(Sc3ccc(OC)cc3)ncn2)cc1            26.3
 4          COc1cc(C(=S)NCc2ccccc2)cc(Br)c1O            39.6
 5  S=c1[nH]nc(-c2cc(-c3ccccc3)n[nH]2)n1/N=C/c1c2ccccc2cc2ccccc12           -2.97
 6  COCCNC(=O)Nc1ccc2nc(-c3ccco3)c(-c3ccco3)nc2c1            34.8
 7  COc1ccc(OCc2nnc3n2N=C(c2ccccc2)C(CC(=O)O)S3)cc1 (stereo not given)            66.8
 8  O=C(Nc1ccc(S(=O)(=O)N2CCOCC2)cc1)c1ccc2ncsc2c1            12.6
 9  COc1cccc(C(=O)Nc2nnc(S(=O)(=O)N3CCCCC3)s2)c1            76.5
10       Nc1ccc2nc3c(=O)[nH]c(=S)[nH]c3nc2c1            23.1
11    N#Cc1ccccc1-n1c(N)c(C(=O)N2CCCC2)sc1=S              31
12  CCOC(=O)c1sc(NC(=O)CSc2nc(C)cc(C(F)(F)F)n2)c(C#N)c1C            29.8
13  COc1cccc(C(=O)Nc2nnc(S(=O)(=O)N3CCOCC3)s2)c1              81
14  COc1ccc(C(=O)Nc2cc(C)c(NC(=O)c3ccccc3OC)cn2)cc1            15.4
15            COC(=O)c1sc(=S)n(-c2ccccc2)c1N              17
